System: gene editing with dCas9
Test: Screen of 322 new SSAP proteins, gene editing activity with dCas9 (Table 5)
Type: cell-based
Conditions: normalized
Readout label: dCas9 with SSAP activity (normalized)
Respond with the number and no other words.

Solved cases below.
Molecule: SSAP_197: SEQ ID NO: 366; Arsenophonus sp. ENCA (protein, listed as Arsenophonus sp.) NTELETMNNVYDNLQSVIMQQGIAALLPAQVTPEQFTRTAATALIENVDLQNADKQSLVLALTRCAKDGLMPDGREAALVVRSTKVNKQFVKKAVYMPMVDGVIKRARQSGQVANIIAKVVYSQDEFEYVIDENGEHLTHRPAFVDGDDIVKVYAFAKLNSGELVVEVMSRAGVEKIRDTVQSAKYDSSPWVKWFDRMALKTVIHRLARRLPCASELFSLFEVYEDANSTEKTLRMAPASFKRLSIN
Readout label: dCas9 with SSAP activity (normalized)
Value measured: −1.370

Molecule: SSAP_176: SEQ ID NO: 345; Absicoccus porci (protein, listed as Absicoccus porci) TTTNQQGMITKKANNSVAKKTNRTMKDYITMYQGEIAKALPSVMTPERFVRIATTAVTNTPKLASCTPQSFIGALLNAAQLGLEPNTPLGQAYLIPYGNQCQFQIGYLGMVELAQRAGTNVDAHVVYANDEFDYSLGLHPDIKHVPAMKDRGEAIAYYAVWHNGENFGFEVMSREDVEKHMKKYSKTYSNGPWKTEFDEMAKKTVLKRALKYAPKKTDLARAVMQDETIKQFNPKADNDMADAKNDFFDVEYDEVDENTDPVTGEVK
Readout label: dCas9 with SSAP activity (normalized)
Value measured: −0.680

Molecule: SSAP_164: SEQ ID NO: 333; Clostridium fimetarium (protein, listed as Clostridium fimetarium) ETIDIKQELASQAQTDSKKEVKLTKAMSIAEMIKAMMPEIKRALPSMITPERFTRIALSALNNTPELQACTPMSFISALLNAAQLGLEINSPLGHAYLIPYKNKGVLECQFQIGYLGLIALAYRNELMQTIQAQCVYENDEFLYEYGLNPKLVHRPATSDRGEPVFFYGLFKMINSGFGFCVMSKQEMDEFARTYSKGLASSFSPWKTSYNEMAKKTVIKQALKYAPIKTDFQKALSTDESIKYAISEDMTEAVNEIVSQNTEVA
Readout label: dCas9 with SSAP activity (normalized)
Value measured: −0.557

Molecule: SSAP_66: SEQ ID NO: 235 (protein) TNQLAHKDFFNTPAVKQKFQEVLNGNERQFTASLLSIVNNNKLLARASNTSIMTAAMKAAVLNLPIEPSLGFAYIVPYGQDAQFQLGYKGLIQLAIRSGQFKAINSGKVYKAQFKSYDPLFETLDIDFTQPEDEVYGYFATFELVNGFKKLTFWTKEQAESHGKRFSKTYAKGPWSTDFDAMAQKTVLKSILSKYAPLSTEMQEGLISDNQTEEVETDPIDVTPKNEDTQTLLSDLMSDEAESETEKV
Readout label: dCas9 with SSAP activity (normalized)
Value measured: −0.040

Molecule: SSAP_278: SEQ ID NO: 447; Paraliobacillus ryukyuensis (protein, listed as Paraliobacillus ryukyuensis) ATNDTLKNQISNKKNNQVAEGKQGTTMKGLLNSPAVMKRFEEVLGKRANQFTASILSLYNNEKTLQKSEPMSVISSAMIAATLDLPIDKNLGYAWIVPYGNKAQFQLGYKGYIQLALRTGQYRNINVIEVYEGELVKWNRLTEELELDFEQKKSDKVIGYTGYFELINGFRKTVYWSKADIEKHKQKFSKSNFGWSNDWDAMAKKTVIRNMLNKWGILSIDMQKAYSTDEIEQEQESNDFIDGEWAEVSEDDITEAMNEV
Readout label: dCas9 with SSAP activity (normalized)
Value measured: −1.000

Molecule: SSAP_259: SEQ ID NO: 428; Virgibacillus chiguensis (protein, listed as Virgibacillus chiguensis) ATNSSLKNQIANKGNGNQNTPQGYTVKQLMSASSVKNRFEETLGKKAPQFMASVINLVNGDTNLQKCDQMSVVSSAMVAAALDLPIDKNLGYAWVVPYGNKATFQMGYKGYIQLALRTGQYKNINVIEVYEGEVKSFNRLTEEIELEFEGKESDKVIGYVGYFELINGFRKTVYWSKDEIERHKKRFSKTGFAWKDNYDAMAKKTVIRNMLNKWGILSIDMQTAVTTDGNAVTQDFEQEDSGLVIDAEFSEVNEASEGQQEIKFENADA
Readout label: dCas9 with SSAP activity (normalized)
Value measured: −1.414

Molecule: SSAP_127: SEQ ID NO: 296; Solibacillus sp. R5-41 (protein, listed as Solibacillus sp.) ATSNELKKQAQGQVTAKPTTPEGSLNALLKKMGPEIQRALPKHMDADRIARIALTAVRTTPKLLECDQLSFVAALMQSAQLGVEPNTGLGQAYLIPYGGKVQFQLGYKGLIDLAVRSGQYKAIYAHEVYADDEFSFAYGLHKDLVHVPSANPSGDPIGYYAVYHLKNGGYDFVYWTRERIDIHSKAFSQAVQKGWTSPWKTNYDAMAKKTVLKEVLKYAPKSIEMQKVVEADETIKNEVAPDMSNVIDVTDYSILEDPQDVTDAQ
Readout label: dCas9 with SSAP activity (normalized)
Value measured: −1.210

Incoming: Item SSAP_299: SEQ ID NO: 468; Paenibacillus sp. JCM 10914 (protein, listed as Paenibacillus sp.) TMDYVTKIQDALDRELDAKHDALPSGFKKTRFSENCRAYVKDYKDLQKYDAEEVASVLFKGAVLGLDFLAKECHVITEGSALRFQTDYKGEMTLVKKYSVRPILDIYAKNVREGDDFREEISGGKPLIHFNPRAFNNSKITGSFAVALFTDGGMVYETMPAEEIESIREHYGKNPGSDTWEKSQGEMYKRTVLRRLCKTIEIDFDAEQSLAYEAGSSFEFDREQQPKKRSPFNPPEVEESEVLSNDGITETQ : provide dCas9 with SSAP activity (normalized)
Outgoing: −0.686

Taken from patent US20250034594A1.
